Values were extracted from PubChem BioAssay (NCI).

Items are presented alongside their recorded TGI.
- System: IGROV1 ovarian
- experimental.details: NCI tumour cell line growth inhibition, 48 h
assay.metric: TGI

{"compound": "CCOC(=O)/C(=N\\OC)C(O)C(F)(F)F (stereo not given)", "result": "> 100 µM"}
{"compound": "Nc1nc(NCCO)c(N=O)c(=O)[nH]1", "result": "> 100 µM"}
{"compound": "CCOc1ccc(-c2cnnn2-c2nonc2-n2cccc2)cc1", "result": "> 100 µM"}
{"compound": "CC(C)(C)OC(=O)CC(NC(=O)OC(C)(C)C)C(=O)N[C@@H]1CCCC[C@H]1C(=O)OCc1ccccc1 (stereo not given in full)", "result": "> 100 µM"}
{"compound": "O=C1NC(=O)C(CC(C(=O)C(=O)Nc2ccccc2Cl)C(=O)c2ccc3ccccc3c2)C(=O)N1 (stereo not given)", "result": "> 100 µM"}
{"compound": "Cc1ccc(N=NC2S/C(=C(\\C#N)c3nc4ccccc4[nH]3)N(c3ccccc3)C2=O)cc1 (stereo not given)", "result": "> 100 µM"}
{"compound": "S=C1Cc2c(-c3ccc(Cl)cc3)cc(-c3ccccc3)nc2-c2ccccc2N1", "result": "14 µM"}
{"compound": "CC(C)c1nc2cc(C(F)(F)F)ccc2[nH]c1=O", "result": "> 100 µM"}
{"compound": "COc1cc(-c2cc(=O)c3c(OC)c(OC)c(OC)cc3o2)c(OC)c(OC)c1OC", "result": "> 75 µM"}
{"compound": "CN(CCCCCl)P(=O)(OCc1ccc([N+](=O)[O-])o1)OCC1OC(n2ccc(N)nc2=O)C(F)(F)C1O (stereo not given)", "result": "> 100 µM"}

----------
- Test system: U251 CNS
- experimental.details: NCI tumour cell line growth inhibition, 48 h
As shown below, each of these compounds has a reported TGI value.

{"compound": "CCCCCCCCCCCCCCCc1ccc(OCC(O)CO)cc1 (stereo unspecified)", "TGI": "55.9 µM"}
{"compound": "COC(=O)C1=C(C)NC(C)=C(C(=O)OC)C1/C=C(\\Cl)c1ccc(Cl)c(Cl)c1", "TGI": "27.1 µM"}
{"compound": "CCOC(=O)C1C(c2ccc(OC)cc2)c2c([nH]n(-c3ccccc3)c2=O)CC1(O)OCC (stereo unspecified)", "TGI": "> 100 µM"}
{"compound": "C=C(C)C1Cc2c(cc(OC)c3c(=O)c4cccc(O)c4oc23)O1 (stereo unspecified)", "TGI": "34.8 µM"}
{"compound": "COc1ccc(-n2cc(-c3cc(OC)c(OC)c(OC)c3)nc2SCc2ccccc2)cc1", "TGI": "> 100 µM"}
{"compound": "Cc1c(C#N)c2ccccc2c2nc3ccccc3n12", "TGI": "> 100 µM"}

----------
- Test system: K-562 leukemia
- experimental.details: NCI tumour cell line growth inhibition, 48 h; in the data active = GI50 below about 0.43 µM; inactive = the rest
Classes used: active, inactive

{"compound": "Oc1ccc(CN2CCC(N3CCOCC3)CC2)c2cccnc12", "qualitative.label": "inactive"}
{"compound": "CC[O-].CC[O-].O=C([CH-]C(=O)c1cccnc1)c1ccccc1.O=C([CH-]C(=O)c1cccnc1)c1ccccc1.[Ti+4]", "qualitative.label": "inactive"}
{"compound": "CN(CCCCCl)P(=O)(OCc1ccc([N+](=O)[O-])o1)OCC1OC(n2ccc(N)nc2=O)C(F)(F)C1O (stereo unspecified)", "qualitative.label": "inactive"}
{"compound": "Cn1cc(C2=C(c3cccc(N)c3)C(=O)NC2=O)c2ccccc21", "qualitative.label": "inactive"}
{"compound": "COc1cc2c(cc1OCCCCCOc1cc3c(cc1OC)C(=O)N1CC(F)C[C@H]1C=N3)N=C[C@@H]1CC(F)CN1C2=O (stereo partly specified)", "qualitative.label": "active"}
{"compound": "CC/C(=C(/c1ccc(OCCN(C)C)cc1)c1ccc(OC(=O)CCC(=O)c2c(C)[nH]c(/C=C3\\N=C(c4ccc[nH]4)C=C3OC)c2C)cc1)c1ccccc1", "qualitative.label": "inactive"}
{"compound": "Clc1ccc(/C=C/c2cc(N3CCOCC3)c3cc(Cl)c(Cl)cc3n2)cc1", "qualitative.label": "inactive"}
{"compound": "Cn1ccnc1C(=O)/C=C/c1ccc(C(=O)Nc2ccc(S(F)(F)(F)(F)F)cc2)cc1", "qualitative.label": "active"}
{"compound": "CCCCCc1nc2c(c3c1CCCC3)CCCC2", "qualitative.label": "inactive"}
{"compound": "CCN1/C(=C/C=C/c2n(-c3ccccc3)c3ccc(-c4nc5ccccc5s4)cc3[n+]2CC)N(c2ccccc2)c2ccc(-c3nc4ccccc4s3)cc21", "qualitative.label": "inactive"}
{"compound": "COc1ccc(C2CC(c3cccc(Nc4ccncc4)c3)=NN2c2ccc(Cl)cc2)cc1 (stereo unspecified)", "qualitative.label": "inactive"}
{"compound": "CCOc1ccc(-c2cnnn2-c2nonc2-n2cccc2)cc1", "qualitative.label": "active"}
{"compound": "C/C=C/C/C=C/CCC(=O)[C@H]1O[C@H]1C(N)=O", "qualitative.label": "inactive"}
{"compound": "CC(C)(O)C#Cc1ccc(/C=C/C(=O)c2ccccc2)s1", "qualitative.label": "inactive"}
{"compound": "CC(=O)N1N=C(c2ccc(Nc3nc(Nc4ccc(Cl)cc4)nc(Nc4ccc(Cl)cc4)n3)cc2)CC1c1ccc([N+](=O)[O-])cc1 (stereo unspecified)", "qualitative.label": "inactive"}
{"compound": "CC(=O)CCc1ccc(OC2OC(COC(=O)c3cc(O)c(O)c(O)c3)C(O)C(O)C2OC(=O)/C=C/c2ccccc2)cc1 (stereo unspecified)", "qualitative.label": "inactive"}
{"compound": "N#Cc1ncc(-c2ccc(C(F)(F)F)cc2)c(NCc2cc(C(F)(F)F)cc(C(F)(F)F)c2)n1", "qualitative.label": "inactive"}
{"compound": "COc1cccc(C2C3=C(COC3=O)N(CCO)c3cc(OC)ccc32)c1 (stereo unspecified)", "qualitative.label": "active"}
{"compound": "CCCCOc1ccc(NC(=O)n2nc(N)c3ccccc32)cc1", "qualitative.label": "inactive"}
{"compound": "Cn1cc(C2=C(c3cn(CCO)c4ccccc34)C(=O)NC2=O)c2ccccc21", "qualitative.label": "inactive"}
{"compound": "O=C1C2C(C(=O)[N]1[Hg][c]1cccs1)C1(Cl)C(Cl)=C(Cl)C2(Cl)C1(Cl)Cl (stereo unspecified)", "qualitative.label": "active"}
